- assay target: HLA-DR DRB1*0101 (human)
- measurement notes: competition vs 125I-labeled peptide, purified HLA
Criterion: IC50 strictly under 60 nM. Met: y. Not met: n.

binder | assigned label
EALMEWLKTRPILSP (modifications not checked) [Flu.M1.43] | y
VVWLIKKNSTYPTIKR (modifications not checked) [Flu.HA.163] | n
CPKYVKSNRLVLATGL (modifications not checked) [Flu.HA.318] | n
KSSFFRNVVWLIKKN (modifications not checked) [Flu.HA.156] | y
ILSIYSTVASSLALAI (modifications not checked) [Flu.HA.532] | y

Asked: Please determine if IYQILSIYSTVASSLA (modifications not checked) [Flu.HA.529] is below 60 nM in terms of IC50.
Given back: y

Asked: # strict comparison: is reported IC50 < 60 nM? input = MEWLKTRPILSPLTK (modifications not checked) [Flu.M1.46]
Given back: y

Asked: Confirm or reject: IC50 of PTTYISVGTSTLNQRL (modifications not checked) [Flu.HA.210] lies strictly below 60 nM
Given back: n

Asked: Hello, I'm reviewing records and need to know if IC50 of TRPILSPLTKGILGF (modifications not checked) [Flu.M1.51] is below 60 nM. Could you check?
Given back: n
